Test system: SMN2-linked luciferase-reporter gene construct
assayText: SMN Splice Reporter Assay (SMN2-linked luciferase reporter)
Type: cell-based
condition: cervical carcinoma cell lines, SMN2 splice luciferase reporter
Items are presented alongside their recorded EC50.
# include the unit after the value

Reference set, count: 4
>  <compoundStructure>
COc1ccc2c(c1)C(=O)N(c1ccc3c(c1)cc(C)n3C)C2

>  <EC50>
114 nM

$$$$
>  <compoundStructure>
Cc1cc2cc(N3Cc4ccc(Br)cc4C3=O)ccc2n1C

>  <EC50>
207 nM

$$$$
>  <compoundStructure>
COc1ccc2c(c1)C(=O)N(c1ccc3c(c1)OCCO3)C2

>  <EC50>
20 nM

$$$$
>  <compoundStructure>
COc1ccc2c(c1)C(=O)N(c1ccc3ccn(C)c3c1)C2

>  <EC50>
143 nM

$$$$

# input compound: "CCCc1ccc2c(c1)C(=O)N(c1ccc3c(ccn3C)c1)C2" ; wanted: its EC50
68 nM

Entry "Cc1cc2ccc(N3Cc4ccc(OC(C)C)cc4C3=O)cc2n1C" please
134 nM
